Value source: patent US7153852B2

Target protein (sequence): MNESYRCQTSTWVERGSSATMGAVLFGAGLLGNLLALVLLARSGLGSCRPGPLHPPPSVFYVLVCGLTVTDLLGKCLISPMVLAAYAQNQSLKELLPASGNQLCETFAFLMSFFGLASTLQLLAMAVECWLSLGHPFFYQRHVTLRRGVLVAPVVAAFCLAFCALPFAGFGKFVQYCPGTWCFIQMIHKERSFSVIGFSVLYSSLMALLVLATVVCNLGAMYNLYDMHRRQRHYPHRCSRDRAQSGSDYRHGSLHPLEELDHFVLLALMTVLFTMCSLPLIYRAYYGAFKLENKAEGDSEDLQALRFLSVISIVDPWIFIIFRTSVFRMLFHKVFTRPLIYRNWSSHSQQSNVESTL
property name: Ki (nM)
Give bare numbers, in nM.

Task: Suppose we examine the molecule `Cc1cc2c(CC(=O)O)cccc2n1C(=O)c1ccc(OC[C@H]2Cc3ccccc3O2)cc1` ; what Ki value has been reported?
Result: 31
